assayed_target: Cytochrome P450 1A2 (Homo sapiens)
experiment_summary: p450-cyp1a2 (AID 410); also: potency is read from the fitted curve at half-maximal effect
condition_label: recombinant CYP1A2, luciferin-ME demethylation, luminescence; series mostly up to 11.4 µM
Records with an inconclusive call do not appear. The source made the active and inactive calls. Calls follow the shape of the full dose curve.
observation_type: Potency

The examples below pair each entry with its known result.
Cc1cc2nc([C@H](C)C(=O)c3ccc(Cl)cc3)c(=O)[nH]c2cc1C    501 nM (active)
N#CC1(Nc2ccc(-c3ccc(NC4(C#N)CCCC4)cc3)cc2)CCCC1    3160 nM (active)
C[C@H](Br)C(=O)c1ccc2cc(Br)c3ccccc3c2c1    158 nM (active)
CC(=O)OCC(=O)[C@@]1(O)CC[C@@H]2[C@@H]3CCC4=CC(=O)CC[C@@]4(C)[C@H]3C(=O)C[C@]21C    inactive
Cc1[nH]c(N)nc(=S)c1CCC(=O)O    inactive

Record Potency for all entries; do not skip any.
1. CCOC(=O)[C@@H](O)Cc1cnc2ccccc2n1
2. C[C@@]12C(=O)OC(=O)[C@@]1(C)[C@H]1CC[C@@H]2O1
3. COc1c(O)ccc2c1CN1CCc3cc4c(cc3[C@@H]1C2)OCO4

3160 nM (active)
inactive
501 nM (active)

* * *

assayed_target: Cytochrome P450 1A2 (Homo sapiens) (UniProt P05177)
Sequence (P05177 whole entry, looked up): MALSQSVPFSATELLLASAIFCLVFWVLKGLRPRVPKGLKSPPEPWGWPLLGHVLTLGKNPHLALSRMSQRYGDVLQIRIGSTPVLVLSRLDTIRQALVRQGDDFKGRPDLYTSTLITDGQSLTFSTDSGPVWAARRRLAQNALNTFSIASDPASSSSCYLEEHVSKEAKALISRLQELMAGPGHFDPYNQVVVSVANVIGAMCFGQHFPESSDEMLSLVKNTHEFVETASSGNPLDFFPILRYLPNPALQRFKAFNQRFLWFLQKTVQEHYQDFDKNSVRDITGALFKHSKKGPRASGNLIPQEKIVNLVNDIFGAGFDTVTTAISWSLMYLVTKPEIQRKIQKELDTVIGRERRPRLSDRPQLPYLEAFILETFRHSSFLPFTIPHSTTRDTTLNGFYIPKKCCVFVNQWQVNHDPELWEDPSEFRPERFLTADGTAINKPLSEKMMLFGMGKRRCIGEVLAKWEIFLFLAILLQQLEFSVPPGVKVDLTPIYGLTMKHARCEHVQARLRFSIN
experiment_summary: p450-cyp1a2 (AID 410)
condition_label: recombinant CYP1A2, luciferin-ME demethylation, luminescence; series mostly up to 11.4 µM
Records with an inconclusive call do not appear. Calls of active or inactive are those of the source. The call rests on the fitted dose curve.
Can you answer with just one of these options? 1 = active, 0 = inactive

Solved entries:
O=C1CN2CCN(CC2)CC(=O)Nc2ccc(cc2)S(=O)(=O)c2ccc(cc2)NC(=O)CN2CCN(CC2)CC(=O)Nc2ccc(cc2)S(=O)(=O)c2ccc(cc2)N1    0
CN(C)CCCn1c2c3ccccc3ccc2c2oc(=O)c3ccccc3c21    1
O=C(O)c1c[nH]c2c(ccc3[nH]cc(C(=O)O)c(=O)c32)c1=O    1
CCCCCCCCCCCCCCCC(=O)NC[C@@H](COP(=O)([O-])OCC[N+](C)(C)C)OCC    0
O=C(c1cc(Br)ccc1O)c1cc(Br)ccc1O    1

Lab log entry: `CN(C)CCNc1nc2c(c(=O)n(C)c(=O)n2C)n1C` — outcome as called in the assay? 0

* * *

experiment_summary: Cell Viability - LYMP1-002 - Assay at 40 hr (AID 994); also: nearly all actives have a fitted effect of over 60% in size
condition_label: LYMP1-002 lymphoblastoid cell viability; series mostly up to 92.2 µM
Results filed as inconclusive are left out. Calls of active or inactive are those of the source. The call rests on the fitted dose curve; in most records, active means well fitted cell-killing curve with a large enough effect; inconclusive means small, poorly fitted or top-dose-only effect; inactive means flat fitted curve, though single readings scatter.
Can you answer with just one of these options? YES (active), NO (inactive)

Solved entries:
c1ccc(SCCSc2ccccc2)cc1    NO
Cc1ccc(S(N)(=O)=O)cc1    NO
O=[N+]([O-])c1cc(N(CCO)CCO)ccc1NCCO    NO
C=CC(=O)OCCCCCCOC(=O)C=C    YES
CCOc1ccc2nc(N)sc2c1    NO
CCNC(=S)NCC    NO
CCCCC(CC)COP(=O)(OCC(CC)CCCC)OCC(CC)CCCC (stereo not drawn)    NO

--- query ---
Lab log entry: `O=c1[nH]ncc2ccccc12` — outcome as called in the assay? NO
